- methodDescription: Inhibition of alpha-glucosidase (unknown origin)
- Parameters: species or system Homo sapiens
recordedMetric: IC50 (µM)
Write the number in µM without appending the unit.

Consider the following illustrative entries.
compound	recordedMetric	measured
COc1ccc(CN2C(=O)C(=O)c3cc(Br)ccc32)cc1	IC50	39.9
COc1ccc(CN2C(=O)C3(c4cc(Br)ccc42)[C@H](C(=O)/C=C/c2ccc(Cl)cc2Cl)[C@@H](c2ccc(Cl)cc2Cl)[C@@H]2CSCN23)cc1 (stereo partly specified)	IC50	14.1
Cc1ccc(/C=C/C(=O)[C@@H]2[C@@H](c3ccc(C)cc3)[C@@H]3CSCN3C23C(=O)Nc2ccccc23)cc1 (stereo partly specified)	IC50	18.9
CCN(CC)c1ccc(/C=C/C(=O)[C@@H]2[C@@H](c3ccc(N(CC)CC)cc3)[C@@H]3CSCN3C23C(=O)N(Cc2ccc(OC)cc2)c2ccc(/C=C/C(=O)OC)cc23)cc1 (stereo partly specified)	IC50	7.43
CN(C)c1ccc(/C=C/C(=O)[C@@H]2[C@@H](c3ccc(N(C)C)cc3)[C@@H]3CSCN3C23C(=O)Nc2ccccc23)cc1 (stereo partly specified)	IC50	4.81

Name the recorded IC50 for COc1ccc(CN2C(=O)C3(c4cc(Br)ccc42)[C@H](C(=O)/C=C/c2ccc(N(C)C)cc2)[C@@H](c2ccc(N(C)C)cc2)[C@@H]2CSCN23)cc1 (stereo partly specified) .
3.64

Same question for O=C(/C=C/c1ccccc1)[C@@H]1[C@@H](c2ccccc2)[C@@H]2CSCN2C12C(=O)Nc1ccccc12 (stereo partly specified) please.
16.1

Same question for COC(=O)/C=C/c1ccc2c(c1)C1(C(=O)N2Cc2ccc(OC)cc2)[C@H](C(=O)/C=C/c2ccc(F)cc2)[C@@H](c2ccc(F)cc2)[C@@H]2CSCN21 (stereo partly specified) please.
4.47

Same question for COc1ccc(CN2C(=O)C3(c4cc(Br)ccc42)[C@H](C(=O)/C=C/c2ccccc2Br)[C@@H](c2ccccc2Br)[C@@H]2CSCN23)cc1 (stereo partly specified) please.
4.09

Same question for O=C(/C=C/c1ccccc1Cl)[C@@H]1[C@@H](c2ccccc2Cl)[C@@H]2CSCN2C12C(=O)Nc1ccccc12 (stereo partly specified) please.
9.8
